Data origin: PubChem BioAssay (NCI)

# Test system: UACC-257 melanoma
# Procedure text: NCI tumour cell line growth inhibition, 48 h
Property label: TGI (µM)
Provide only the numeric value, understood in µM.

// lookup TGI for CCN(Cc1cccc(Cl)c1)c1ccc(CO)c(Cl)c1
0.404

More entries:
// lookup TGI for O=C(N/N=C/c1cc(Br)cc(Br)c1[O-])c1ccccc1O.O=C(N/N=C/c1cc(Br)cc(Br)c1[O-])c1ccccc1O.[Zn+2]
10.6

====

# Test system: T-47D breast
# Procedure text: NCI tumour cell line growth inhibition, 48 h
Property label: TGI (µM)
Provide only the numeric value, understood in µM.

// lookup TGI for CCN(CC)CCN(C)c1ccc(CO)c2c1C(=O)c1ccccc1S2=O (stereo not given)
28.2

// lookup TGI for C=C1C(=O)O[C@H]2C1C[C@@H](OC(C)=O)/C(C)=C/CC[C@@]1(C)O[C@H]21 (stereo not given in full)
21.5

Switching to the query record.
// lookup TGI for N[C@@H]1CCN(c2c(F)cc3c(=O)c(C(=O)O)cn4c3c2Oc2cc3c(ccc5ccccc53)cc2-4)C1
31.3

====

The following compounds are listed with their measured log10 of TGI values.
# Tested on: MALME-3M melanoma
# Procedure text: NCI tumour cell line growth inhibition, 48 h
Kindly note that the scale is log10 and the underlying TGI is in µM.

Previously resolved entries follow.
// lookup log10 of TGI for C=C1C(=O)O[C@H]2C1C[C@@H](OC(C)=O)/C(C)=C/CC[C@@]1(C)O[C@H]21 (stereo partly drawn)
1.27

// lookup log10 of TGI for CO[C@H]1CC(O[C@@H]2/C(C)=C/C[C@@H]3C[C@@H](C[C@]4(CC[C@H](C)[C@@H](C5CCCCC5)O4)O3)OC(=O)[C@@H]3C=C(C)/C(=N/O)[C@H]4OC/C(=C\C=C\[C@@H]2C)[C@]43O)O[C@@H](C)C1O (stereo partly drawn)
0.50

// lookup log10 of TGI for CCOc1ccn(-c2ccc(F)cc2)c(=O)c1C(=O)Nc1ccc(Oc2ccnc(N)c2Cl)c(F)c1
1.67

// lookup log10 of TGI for Cc1c(N=C/C=C/c2ccccc2)c(=O)n(-c2ccccc2)n1C
1.80

// lookup log10 of TGI for O=C(Nc1ccc(Cl)cc1Cl)OC(Cn1cncn1)c1ccc(Cl)cc1Cl (stereo not drawn)
1.47

More entries:
// lookup log10 of TGI for CC(=O)N1N=C(c2ccc(Nc3nc(Nc4ccc(F)cc4)nc(Nc4ccc(F)cc4)n3)cc2)CC1c1ccc(N(C)C)cc1 (stereo not drawn)
1.54

// lookup log10 of TGI for COc1ccccc1C(O)[C@@H]1C[C@@H]2[C@H]3CC[C@@](C)([C@@H]2O1)C3(C)C (stereo partly drawn)
1.48

====

# Test system: KM12 colon
# Procedure text: NCI tumour cell line growth inhibition, 48 h
Property label: TGI

// lookup TGI for COC1OC2COC(C)(C)OC2C(OC(C)=O)C1NC(=O)N(CCCl)N=O (stereo unspecified)
> 100 µM

// lookup TGI for COc1cc(C(=O)c2cnc(-c3cccc4[nH]ccc34)[nH]2)cc(OC)c1OC
24 µM

// lookup TGI for Cc1ccc2c(=O)cc(-c3ccc4ccccc4c3)[nH]c2n1
65.4 µM

// lookup TGI for O=C1O/C(=C/c2ccccc2)C(c2ccccc2)=C1O
> 100 µM

// lookup TGI for Nc1nc(NCCCO)cc(=O)[nH]1
> 100 µM

// lookup TGI for CC(=O)[C@H]1CCC/C=C/[C@@H]2C[C@H](O)C[C@H]2[C@H](O)/C=C/C(=O)O1
> 19.7 µM

// lookup TGI for COC(=O)C1C(=O)O[C@@H](c2cc(OC)c(OC)cc2OC)C1C(=O)OC (mixture of isomers)
> 100 µM

// lookup TGI for Cc1cc2nc3ccccc3n2c2nc(N)ccc12
> 100 µM

// lookup TGI for Cc1cccc(C)c1N1C(=O)C(=O)C(c2nc3ccccc3s2)/C(=N\N)C1=O (stereo unspecified)
> 100 µM

// lookup TGI for OC(CN(CCCl)CCCl)C(O)C(O)C(O)CN(CCCl)CCCl (stereo unspecified)
> 100 µM

Switching to the query record.
// lookup TGI for Cc1cc(-c2cc(O)ccc2Cl)cc2nnc(Nc3ccc(OCCN4CCCC4)cc3)nc12
1.32 µM

====

# Test system: PC-3 prostate
# Procedure text: NCI tumour cell line growth inhibition, 48 h
Property label: TGI

// lookup TGI for CCOC(=O)c1nc2ccc(C(F)(F)F)cc2nc1NCc1ccc(OC)c(OC)c1
> 100 µM

More entries:
// lookup TGI for CCOC(=O)NC(Nc1ccc(F)cc1)(C(=O)OCC)C(F)(F)F (stereo not given)
> 100 µM

// lookup TGI for Cc1c(N=C/C=C/c2ccccc2)c(=O)n(-c2ccccc2)n1C
> 100 µM

// lookup TGI for O=C1CC(CC(=O)c2ccc(Br)cc2)C(=O)/C1=C(/O)c1ccc(Br)cc1 (stereo not given)
> 100 µM

// lookup TGI for COc1ccccc1C(O)[C@@H]1C[C@@H]2[C@H]3CC[C@@](C)([C@@H]2O1)C3(C)C (stereo not given in full)
45.2 µM

// lookup TGI for CC(=O)c1ccc2c(c1)CC1(C2)Cc2cc3c(c(C(=O)O)c2C1)CCC3 (stereo not given)
> 100 µM

// lookup TGI for COc1cccc(C2SC(N)=Nc3c2c(C)nn3C(=O)Cc2ccccc2)c1 (stereo not given)
> 100 µM

// lookup TGI for CN1CCN(Cc2ccc(NC(=O)c3cncc(C#Cc4cnc(N)c5cccnc45)c3)cc2C(F)(F)F)CC1
> 50 µM

// lookup TGI for Oc1c(Cl)cc(Cl)c2ccc(Cn3cc(-c4ccc(C(F)(F)F)cc4)nn3)nc12
11.1 µM

// lookup TGI for CCOC(=O)c1nc2cc(C(F)(F)F)ccc2nc1Nc1ccc(C(=O)OC)s1
> 100 µM

====

The following compounds are listed with their measured TGI values.
# Tested on: DU-145 prostate
# Procedure text: NCI tumour cell line growth inhibition, 48 h

Previously resolved entries follow.
// lookup TGI for Clc1ccc(CCN[C@H]2CCCC[C@H]2N2CCCC2)cc1Cl
59.8 µM

// lookup TGI for Cn1c2c(c3c(Cl)nncc31)Cc1ccccc1-2
41 µM

// lookup TGI for CCOC(=O)c1nc2cc(C(F)(F)F)ccc2nc1Nc1ccc(C(=O)OC)s1
> 100 µM

// lookup TGI for N[C@@H]1CCN(c2c(F)cc3c(=O)c(C(=O)O)cn4c3c2Oc2cc3c(ccc5ccccc53)cc2-4)C1
> 100 µM

More entries:
// lookup TGI for C=CCC(N[C@H](CO)c1ccccc1)c1cn(Cc2ccccc2Cl)c(=O)n(Cc2ccccc2Cl)c1=O (stereo partly specified)
95.5 µM

// lookup TGI for CC(=O)c1cc(C(=O)c2ccc3c(c2)Sc2ccccc2N3)n2ccccc12
> 33.2 µM

// lookup TGI for O=C(/C=C/c1ccccc1)Nc1ccccc1SCCCCl
> 100 µM

// lookup TGI for c1ccc(CNCCN(CCNCc2ccccn2)Cc2ccc3ccccc3c2)nc1
10.3 µM

// lookup TGI for CCOC(=O)C(C#N)C1=CC(=O)C(=O)c2ccc(O)cc21 (stereo unspecified)
> 100 µM

// lookup TGI for CC(C)C(OC(=O)c1ccc(NCC2=CC(=O)C=CC2=O)cc1)C(C)C
65.5 µM

// lookup TGI for Nc1nc(/C=C\c2ccccc2)nc(N2CCN(c3ccccc3)CC2)n1
> 100 µM

// lookup TGI for C/C=C1/CC(C)C(C)(O)C(=O)OCC2C(O)CN3CCC(OC1=O)C23 (stereo unspecified)
> 100 µM

// lookup TGI for CCOP(=O)(OCC)C(NC(=O)C(C(F)(F)F)C(F)(F)F)c1ccccc1 (stereo unspecified)
> 100 µM

// lookup TGI for O=C1CC(CC(=O)c2ccc(Br)cc2)C(=O)/C1=C(/O)c1ccc(Br)cc1 (stereo unspecified)
> 100 µM

// lookup TGI for O=C1Nc2nccnc2C(=O)N2CCC[C@@H]12
> 100 µM

// lookup TGI for O=c1c(Cl)c(Cl)cnn1CCCl
34 µM

====

# Test system: UO-31 renal
# Procedure text: NCI tumour cell line growth inhibition, 48 h
Property label: GI50

Previously resolved entries follow.
// lookup GI50 for CC(=O)[C@H]1CCC/C=C/[C@@H]2C[C@H](O)C[C@H]2[C@H](O)/C=C/C(=O)O1
0.296 µM

// lookup GI50 for Cc1cc(C)c(-c2c(N)cc(Br)cc2Br)c(N)c1
5.4 µM

// lookup GI50 for Cn1cc(-c2cnn3c(N)c(Br)c(C4CCCNC4)nc23)cn1 (configuration not stated)
4.63 µM

More entries:
// lookup GI50 for CC1NC(=O)C2=C1C(=O)NC(=O)C2 (configuration not stated)
> 100 µM

// lookup GI50 for CC(=O)N1N=C(c2ccc(Nc3nc(Nc4ccc(F)cc4)nc(Nc4ccc(F)cc4)n3)cc2)CC1c1ccc(N(C)C)cc1 (configuration not stated)
5.94 µM
